Target: T1, CD154 (human, UniProt P29965 113-261, limits assumed)
T1 construct: also called CD40 ligand; CD40L
T1 sequence (looked up): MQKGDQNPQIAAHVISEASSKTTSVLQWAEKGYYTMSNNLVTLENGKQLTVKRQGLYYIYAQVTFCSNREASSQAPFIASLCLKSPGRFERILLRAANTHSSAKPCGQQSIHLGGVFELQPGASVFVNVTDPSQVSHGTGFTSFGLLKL
Assay: ELISA-based competitive binding assay; unlabeled Fab against biotin-labeled 5c8 Fab competitor
measured property: ELISA fold-improvement over wildtype (fold over wildtype)
Give a bare numeral; the unit fold over wildtype is implied.

[
  {
    "binder": "5c8 Fab Mutant #14 (light chain S26D/Q27E) (Fab, V domains shown, Fab fragment; also called double mutant) VH: QVQLVQSGAEVVKPGASVKLSCKASGYIFTSYYMYWVKQAPGQGLEWIGEINPSNGDTNFNEKFKSKATLTVDKSASTAYMELSSLRSEDTAVYYCTRSDGRNDMDSWGQGTLVTVSS VL: DIVLTQSPATLSVSPGERATISCRADERVSSSTYSYMHWYQQKPGQPPKLLIKYASNLESGVPARFSGSGSGTDFTLTISSVEPEDFATYYCQHSWEIPPTFGGGTKLEIK",
    "ELISA fold-improvement over wildtype, fold over wildtype": 5.6
  }
]

Entry 5c8 Fab Mutant #25 (heavy chain T30H/Y33W; light chain S26D/Q27E/T33W) (Fab, V domains shown, Fab fragment; also called combination 5 point mutation (assigned)) VH: QVQLVQSGAEVVKPGASVKLSCKASGYIFHSYWMYWVKQAPGQGLEWIGEINPSNGDTNFNEKFKSKATLTVDKSASTAYMELSSLRSEDTAVYYCTRSDGRNDMDSWGQGTLVTVSS VL: DIVLTQSPATLSVSPGERATISCRADERVSSSWYSYMHWYQQKPGQPPKLLIKYASNLESGVPARFSGSGSGTDFTLTISSVEPEDFATYYCQHSWEIPPTFGGGTKLEIK ; ELISA fold-improvement over wildtype = 5.6

Entry 5c8 Fab Mutant #23 (heavy chain Y33W; light chain S26D/Q27E) (Fab, V domains shown, Fab fragment) VH: QVQLVQSGAEVVKPGASVKLSCKASGYIFTSYWMYWVKQAPGQGLEWIGEINPSNGDTNFNEKFKSKATLTVDKSASTAYMELSSLRSEDTAVYYCTRSDGRNDMDSWGQGTLVTVSS VL: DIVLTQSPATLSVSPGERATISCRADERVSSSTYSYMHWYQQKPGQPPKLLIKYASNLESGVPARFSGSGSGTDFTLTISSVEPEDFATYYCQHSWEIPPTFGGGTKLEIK ; ELISA fold-improvement over wildtype = 5.2
